// data source = patent US10570152B2

compounds and their reported MIC
tested on: S. aureus ATCC 43300

Example entries and their recorded answers appear below.
>>> assay_value("CC(=O)NC[C@H]1CN(c2ccc(N3CCN(C(=O)NC(=N)N)CC3)c(F)c2)C(=O)O1 [Compound 84]")
"> 16 µg/mL"
>>> assay_value("CC1Sc2c(C(=O)O)c(=O)c3cc(F)c(N4CCN(CC(=O)Nc5ncc([N+](=O)[O-])s5)CC4)cc3n21 (stereo not drawn) [Compound 6]")
"< 0.13 µg/mL"

// next entry
q: Please give the measured MIC for this compound: CC(=O)NC[C@H]1CN(c2ccc(N3CCN(C(=O)c4csc(NC(=N)N)n4)CC3)c(F)c2)C(=O)O1 [Compound 58]
a: > 16 µg/mL

* * *

tested on: S. epidermidis S12-1
RECORDED_METRIC: MIC

Worked examples, 2 compounds total:
>>> assay_value("CC(=O)NC[C@H]1CN(c2ccc(N3CCN(C(=O)c4csc(NC(=N)N)n4)CC3)c(F)c2)C(=O)O1")
"> 16 µg/mL"
>>> assay_value("CC1Sc2c(C(=O)O)c(=O)c3cc(F)c(N4CCN(Cc5nc6ccc([N+](=O)[O-])cc6[nH]5)CC4)cc3n21 (stereo not shown)")
"> 16 µg/mL"

q: Recall the recorded MIC for CC1Sc2c(C(=O)O)c(=O)c3cc(F)c(N4CCN(Cc5nc6cc(Cl)c(Cl)cc6[nH]5)CC4)cc3n21 (stereo not shown) with S. epidermidis S12-1 and state it.
a: > 16 µg/mL

q: Can you look up MIC on S. epidermidis S12-1 for CC1Sc2c(C(=O)O)c(=O)c3cc(F)c(N4CCN(CC(=O)Nc5ccc6nc(N)[nH]c6c5)CC4)cc3n21 (stereo not shown) ?
a: > 16 µg/mL

q: # query: MIC | item Cc1ncc([N+](=O)[O-])n1CC(O)CN1CCN(c2cc3c(cc2F)c(=O)c(C(=O)O)c2n3C(C)S2)CC1 (stereo not shown) | system: S. epidermidis S12-1
a: > 64 µg/mL

q: Enter reported MIC observed with S. epidermidis S12-1 for CC1Sc2c(C(=O)O)c(=O)c3cc(F)c(N4CCN(C(=O)CNC(=O)c5cccc[n+]5[O-])CC4)cc3n21 (stereo not shown)
a: > 16 µg/mL

q: Under S. epidermidis S12-1: MIC value of CC(=O)NC[C@H]1CN(c2ccc(N3CCN(Cc4nc5ccc([N+](=O)[O-])cc5[nH]4)CC3)c(F)c2)C(=O)O1 ?
a: > 16 µg/mL
